Target: Glucose transporter (Leishmania mexicana) (UniProt O61059)
Experiment: ST_JUDE_LEISH: Cytotoxicity at 2uM final concentration against transgenic Leishmania Mexicana promastigotes LmGT2 that are glucose transport deficient and complemented with the L. Mexicana glucose transporter 2. Activity is measured by DNA content using SYBR green in vitro
Assay type: functional
This listing pairs compounds with measured inhibition.
Express your answer in %, writing the number without its unit.

                                   molecule  experimental_readout  reported_measurement
0  CCc1nnc2sc(-c3cccc(NC(=O)c4ccc(OC)c(Cl)c4)c3)nn12            inhibition                  3.88
1  Cc1cc(C)c(C(=O)Nc2n[nH]c3nnc(-c4cccc(F)c4F)cc23)c(C)c1            inhibition                  0.28
2  CCc1ccc(O)c(-c2cc(C(=O)Nc3cccnc3)[nH]n2)c1            inhibition                  2.29
3              N=C(N)NN=CC(=O)Nc1ccc(Br)cc1            inhibition                 -1.29
4  COc1ccc(Cn2cncc2CN(CCC(C)C)C(=O)c2ccc(Cl)nc2Cl)cc1            inhibition                  2.49

Task: Would you kindly share the measured inhibition for `c1ccc(CNCc2ccc(-c3cccc(-c4nc5ccccc5[nH]4)c3)cc2)cc1` ?
Result: -1.62

Task: inhibition lookup needed for `Cc1cc(N(CCCN(C)C)Cc2cc(F)cc(F)c2)nc(Nc2ccc(Cl)cc2)n1` , thanks.
Result: 1.83
